Assay: basal 3T3-L1 adipocyte mitochondrial potential changes, profiling panel, cell-based, JC-1 fluorescence, 3T3-L1 adipocytes, 24 h, 100 nL compound (AID 1168); also: test concentration not given here
Conditions: JC-1 mitochondrial fluorescence, higher = more signal, called active from +8 up or from −8 down
Output label 1 for z-score not less than -0.2; output label 0 otherwise.

compound	class_label
CN1C(=O)C2C(C1=O)C1C=C(CCCO)C2C(c2cccs2)N1C (configuration not stated)	label 1
CC(C)c1ccc(NN2C(C(O)c3c(F)cccc3Cl)C=CC3C(=O)N(c4ccccc4)C(=O)C32)cc1 (configuration not stated)	label 0

Task: Decide: is the reported value of z-score for `Cc1ccc(S[C@]2(C(=O)NCCN3CCOCC3)CC(=O)N(Cc3cc(C(F)(F)F)cc(C(F)(F)F)c3)[C@@H]2c2ccc(CO)cc2I)cc1` equal to or greater than -0.2?
Result: label 0

Task: Decide: is the reported value of z-score for `COC(=O)[C@@]1(Cc2ccccc2)[C@H]2c3cc(C(=O)N4CCCC4)n(Cc4ccc(C)o4)c3C[C@H]2CN1C(=O)c1ccccc1` equal to or greater than -0.2?
Result: label 0

Task: Decide: is the reported value of z-score for C=CCC(OC(C)=O)[C@@H]1[C@@H](N(Cc2ccc(-c3ccccc3)cc2)C(=O)Cc2ccc(OC)cc2)c2cc(OCCCO)ccc2N1C(=O)c1ccc2ccccc2n1 (some centres not stated) equal to or greater than -0.2?
Result: label 0

Task: Decide: is the reported value of z-score for COc1cccc(C(=O)O[C@H]2CC[C@]3(C)C4=C(CCC3C2(C)C)[C@]2(C)CC[C@H]([C@H](C)CCCC(C)C)[C@@]2(C)CC4)c1 (some centres not stated) equal to or greater than -0.2?
Result: label 1

Task: Decide: is the reported value of z-score for `[N-]=[N+]=NCc1ccccc1[C@H]1OC(c2ccc(OCCCO)cc2)=N[C@@]1(CCS(=O)(=O)c1ccccc1)C(=O)N1CCOCC1` equal to or greater than -0.2?
Result: label 1

---

Biological target: Concanavalin-A (Canavalia ensiformis) (UniProt P02866)
Sequence (P02866 whole entry, looked up): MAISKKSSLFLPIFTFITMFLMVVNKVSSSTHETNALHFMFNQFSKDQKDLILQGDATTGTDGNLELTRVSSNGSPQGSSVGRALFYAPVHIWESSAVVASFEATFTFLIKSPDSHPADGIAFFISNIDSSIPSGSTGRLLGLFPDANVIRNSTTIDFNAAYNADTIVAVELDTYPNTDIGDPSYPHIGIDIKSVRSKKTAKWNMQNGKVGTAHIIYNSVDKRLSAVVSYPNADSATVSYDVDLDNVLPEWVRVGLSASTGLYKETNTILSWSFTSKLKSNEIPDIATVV
Experiment: ConA small-molecule binders, primary screen, artefact control for SMM control protein annotation, biochemical, small-molecule microarray, Alexa647 label, 635 nm (AID 1127);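 also: z combines 667 nm emission intensity with signal-to-noise across three replicate slides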
Conditions: ConA-A647 binding fluorescence, higher = more signal
Catalogue of composite z-score readings, one per entry.
Enter a number only.

compound	composite z-score
C=CCN1C(=O)[C@]2(O[C@H](CCO)[C@@H]([Si](C)(C)c3ccc(OC)cc3)[C@@H]2C)c2cc(NC(=O)[C@H](C)O)ccc21	1.01
CCOC(=O)C1=C[C@@H](C(C)C)N(S(=O)(=O)c2ccc(C)cc2)[C@H]1c1ccc(C(C)C)cc1	1.07
NCCCCCCNC(=O)[C@H]1C[C@H]2C(=O)NCC(=O)N2[C@H]1c1cccc(OCCO)c1	1.1
CCCCCCCCCCC(O)C1C=CC2C(=O)N(Cc3ccccc3)C(=O)C2N1n1cnnc1 (configuration not stated)	1.04
O=C1O[C@@H](c2ccccc2)[C@@H](c2ccccc2)N2[C@@H](c3ccc(O)cc3)[C@]3(C(=O)Nc4ccc(C#CC5(O)CCCCCC5)cc43)[C@@H](C(=O)N3CCCCCCC3)[C@H]12	1.12

Task: Give the measured composite z-score of O=C1C2C=CC(C(O)c3ccc(F)cc3)N(Nc3ccccc3)C2C(=O)N1c1ccccc1 (configuration not stated) .
Result: -0.398

Task: Give the measured composite z-score of `Cc1ccc(S[C@]2(C(=O)NCc3ccccc3)CC(=O)N(Cc3ccccc3Cl)[C@@H]2c2ccc(CO)cc2I)cc1` .
Result: -0.139

---

Test system: Neuregulin-1 EGF-like domain
Experiment: binders of neuregulin-1 EGF-like domain, primary screen, biochemical, small-molecule microarray, 635 nm fluorescence (AID 1081);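 also: binding of the protein to compounds printed on small-molecule microarray slides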
Conditions: small-molecule microarray binding, higher = more signal
Output yes (1) for composite z-score not less than 1; output no (0) otherwise.

Example results:
molecule	class_label
C=CCNC(=O)[C@@H]1[C@H]2C(=O)O[C@H](c3ccccc3)[C@H](c3ccccc3)N2[C@H](c2ccccc2OCCO)[C@@]12C(=O)Nc1ccc(C#CC3=CCCCC3)cc12	yes (1)
C=C(COC)/C(=C/C[C@H](OC(=O)c1ccncc1)c1cccc(OCCO)c1)c1cc(C(=O)OC)ccc1OC	yes (1)
CC(C)OC(=O)CC(=O)CC(O)c1ccc(C#N)cc1 (configuration not stated)	no (0)

Task: Decide: is the reported value of composite z-score for `COCCOC(=O)N1C(=O)[C@@]2(c3cc(C#CCNC(N)=O)ccc31)[C@H](c1ccccc1OCCO)N1[C@H](c3ccccc3)[C@H](c3ccccc3)OC(=O)[C@H]1[C@@H]2C(N)=O` equal to or greater than 1?
Result: no (0)

Task: Decide: is the reported value of composite z-score for `CN(C)CCCNC(=O)[C@@]1(Cc2ccccc2I)c2ccccc2C(=O)N(Cc2ccccc2C(F)(F)F)[C@H]1c1ccc(CO)cc1` equal to or greater than 1?
Result: yes (1)

Task: Decide: is the reported value of composite z-score for O=C1OCCC=C[C@H]2OC34C=CCN(Cc5ccccc5)C(=O)[C@H]3N(CCCCCO)C(=O)[C@@H]4C12 (some centres not stated) equal to or greater than 1?
Result: yes (1)

Task: Decide: is the reported value of composite z-score for `COc1ccccc1CN1C(=O)c2ccccc2[C@@H](C(=O)NCCN2CCOCC2)[C@@H]1c1ccc(CO)cc1` equal to or greater than 1?
Result: yes (1)

---

Catalogue of composite z-score readings, one per entry.
Tested on: Human papillomavirus type 1a E7 protein (residues 1-88)
Test: HPV1a E7 small-molecule binders, primary screen, biochemical, small-molecule microarray, residues 1-88, 635 nm (AID 1129)
Details: small-molecule microarray binding, fluorescence 635 nm; higher = more signal
Enter a number only.

Worked cases, composite z-score given:
compound	test_target	measured_result
CC(C)(C)OC(=O)CC[C@@]1(C(=O)O)N=C(c2ccc(OCCCO)cc2)O[C@@H]1c1ccccc1N=[N+]=[N-]	Human papillomavirus type 1a E7 protein (residues 1-88)	0.826
COC(=O)[C@@]1(Cc2ccccc2)[C@H]2c3cc(C(=O)N(C)C)n(Cc4cc(C)n(C)n4)c3C[C@H]2CN1C(=O)c1ccccc1	Human papillomavirus type 1a E7 protein (residues 1-88)	1.13
C=CCC(OC(C)=O)[C@@H]1[C@@H](N(Cc2cccc3ccccc23)C(=O)c2cccc3ccccc23)c2cc(OCCCO)ccc2N1C(=O)c1ccc2ccccc2n1 (some centres undefined)	Human papillomavirus type 1a E7 protein (residues 1-88)	-0.0829
CC1=C2[C@@H](CCc3ccccc3)OB(O)C[C@@H]2n2c(=O)n(-c3ccccc3)c(=O)n2C1	Human papillomavirus type 1a E7 protein (residues 1-88)	0.479
O=C(CS)NCCCCCCNC(=O)[C@@H]1C[C@@H]2C(=O)N3CCC[C@H]3C(=O)N2[C@@H]1c1ccc(O)cc1	Human papillomavirus type 1a E7 protein (residues 1-88)	1.21

Task: Give the measured composite z-score of `O=C1O[C@@H](c2ccccc2)[C@@H](c2ccccc2)N2[C@@H](c3ccc(O)cc3)[C@]3(C(=O)Nc4ccc(C#CC5(O)CCCCCC5)cc43)[C@@H](C(=O)N3CCCCCCC3)[C@H]12` .
Result: 1.26

Task: Give the measured composite z-score of `COc1ccc([Si](C)(C)[C@@H]2[C@@H](CCn3cc([C@H](O)c4ccccc4)nn3)O[C@]3(C(=O)N(Cc4ccc(N5C(=O)c6cccc7cccc5c67)cc4)c4ccccc43)[C@H]2C)cc1` .
Result: -0.412

Task: Give the measured composite z-score of `CCCNC(=O)[C@@]1(c2ccc([N+](=O)[O-])cc2)CC(=O)N(CC23CC4CC(CC(C4)C2)C3)[C@@H]1c1ccc(CO)cc1` .
Result: 1.04

Task: Give the measured composite z-score of CC(C)c1ccc(NN2C(C(O)c3ccc(N(C)C)cc3)C=CC3C(=O)N(c4ccccc4)C(=O)C32)cc1 (centres undefined) .
Result: 1.24

Task: Give the measured composite z-score of C=CCC(OC(C)=O)[C@@H]1[C@@H](N(Cc2ccc(-c3ccccc3)cc2)C(=O)Cc2ccc(OC)cc2)c2cc(OCCCO)ccc2N1C(=O)c1ccc2ccccc2n1 (some centres undefined) .
Result: 0.0656

Task: Give the measured composite z-score of `COCCCNC(=O)[C@@]1(c2ccc([N+](=O)[O-])cc2)CC(=O)N(CC23CC4CC(CC(C4)C2)C3)[C@@H]1c1ccc(CO)cc1` .
Result: 1.18

Task: Give the measured composite z-score of `CC(C)C(=C=CC[C@H](O)c1cccc(OCCO)c1)C[C@H](O)COCc1ccccc1` .
Result: 0.165

Task: Give the measured composite z-score of Cc1cc(C)c(C(O)C2C=CC3C(=O)N(c4ccccc4)C(=O)C3N2Nc2ccc(C#N)cc2)c(C)c1 (centres undefined) .
Result: 1.23

Task: Give the measured composite z-score of `COCCOC(=O)N1C(=O)[C@@]2(c3cc(C#CCC(C(=O)OC)C(=O)OC)ccc31)[C@H](C(=O)N1CCCCCCC1)[C@H]1C(=O)O[C@H](c3ccccc3)[C@H](c3ccccc3)N1[C@@H]2c1ccc(OCCO)cc1` .
Result: 1.25

Values compiled from PubChem BioAssay.
